System Under Test: YcfD (Escherichia coli, UniProt P27431)
Construct: hexa-His (N); made in house; host or cells: E. coli BL21 (DE3), pET28a
Sequence (P27431 1-373): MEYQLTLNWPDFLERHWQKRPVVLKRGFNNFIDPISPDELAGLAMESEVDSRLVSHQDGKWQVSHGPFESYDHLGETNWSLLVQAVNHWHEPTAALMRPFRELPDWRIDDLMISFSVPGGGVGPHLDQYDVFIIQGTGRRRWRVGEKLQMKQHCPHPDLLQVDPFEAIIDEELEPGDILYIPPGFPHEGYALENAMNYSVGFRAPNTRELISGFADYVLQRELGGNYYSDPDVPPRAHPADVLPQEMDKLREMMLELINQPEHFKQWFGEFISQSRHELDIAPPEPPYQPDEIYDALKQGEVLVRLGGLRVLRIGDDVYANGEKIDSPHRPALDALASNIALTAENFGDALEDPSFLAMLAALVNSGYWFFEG
Experimental Protocol: Hydroxylation assay by MALDI-TOF MS (peptide substrates, +16 Da mass shift)
Assay type: biochemical
Particulars: peptide substrate incubated with YcfD, +16Da mass shift on products
Method: Assay mixtures (final volume 100 μL in 50 mM Tris-HCl, pH 7.5) contained: enzyme (10 μM), substrate (100 μM), 2OG (160 μM), Fe(II) (200 μM) and ascorbate (2 mM). The reaction mixture was incubated at 37° C. for 30 minutes. The reaction mixture was then placed on ice, 10 μl of 1% formic acid was added to quench the reaction, and the mixture was centrifuged to separate any insoluble material that precipitated during quenching. […]
# % hydroxylation (+16 Da) per entry
State just the number; it will be interpreted in %.

# annotated cases, reported % hydroxylation (+16 Da) shown
ATVAKCVEALKERFQASLRD [synthetic peptide, protein origin PheT] = 40
LLRLFFPLSLRV [synthetic peptide, protein origin PhoQ] = 50
KTPLAVLQSTLRS [synthetic peptide, protein origin PhoQ] = 95

**Q:** What does the record list as % hydroxylation (+16 Da) for LTHSLKTPLAVLQSTLRS [synthetic peptide, protein origin PhoQ] ?
**A:** 90

**Q:** What does the record list as % hydroxylation (+16 Da) for AQYPQEVITTVRG [synthetic peptide, protein origin PhoP] ?
**A:** 60

**Q:** What does the record list as % hydroxylation (+16 Da) for VEALKERFQASLRD [synthetic peptide, protein origin Phenylalanyl-tRNA synthetase] ?
**A:** 40

**Q:** What does the record list as % hydroxylation (+16 Da) for KWQMMLSKSMRR [synthetic peptide, protein origin CaiF] ?
**A:** 30

**Q:** What does the record list as % hydroxylation (+16 Da) for NTHRGMGYSLRGL [synthetic peptide, protein origin CreB] ?
**A:** 30

**Q:** What does the record list as % hydroxylation (+16 Da) for ELNREQKWQMMLSKSMRR [synthetic peptide, protein origin CaiF] ?
**A:** 40

**Q:** What does the record list as % hydroxylation (+16 Da) for KHVQALDLSMRFR [synthetic peptide, protein origin Nicotinate-nucleotide diphosphorylase] ?
**A:** 30

----------
System Under Test: YcfD (Escherichia coli)
Construct: hexa-His (N); made in house; host or cells: E. coli BL21 (DE3), pET28a
Sequence (P27431 1-373): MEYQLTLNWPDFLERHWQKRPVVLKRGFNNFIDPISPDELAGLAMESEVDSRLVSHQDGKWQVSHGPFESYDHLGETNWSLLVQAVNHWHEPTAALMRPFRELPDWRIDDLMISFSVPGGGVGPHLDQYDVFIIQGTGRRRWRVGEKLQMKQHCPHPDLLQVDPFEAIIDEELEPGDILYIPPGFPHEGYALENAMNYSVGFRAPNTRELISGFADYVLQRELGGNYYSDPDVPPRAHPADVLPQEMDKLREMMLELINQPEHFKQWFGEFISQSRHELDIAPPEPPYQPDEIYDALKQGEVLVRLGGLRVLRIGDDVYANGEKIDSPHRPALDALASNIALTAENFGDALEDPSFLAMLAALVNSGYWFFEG
Experimental Protocol: Hydroxylation assay by MALDI-TOF MS (peptide substrates, +16 Da mass shift)
Type: biochemical
Particulars: peptide substrate incubated with YcfD, +16Da mass shift on products
Property Name: % hydroxylation (+16 Da) (%)
State just the number; it will be interpreted in %.

# annotated cases, reported % hydroxylation (+16 Da) shown
LAVLQSTLRSLRS [synthetic peptide, protein origin PhoQ] = 60
LTELNREQKWQMMLSKSMRR [synthetic peptide, protein origin CaiF] = 40
VAKCVEALKERFQASLRD [synthetic peptide, protein origin PheT] = 50
KTPLAVLQSTLRSLR [synthetic peptide, protein origin PhoQ] = 40

**Q:** What does the record list as % hydroxylation (+16 Da) for KLLRLFFPLSLRV [synthetic peptide, protein origin PhoQ] ?
**A:** 60

Values from patent US20140045930A1
